Taken from ChEMBL document CHEMBL2218924.

# residual activity per record follows
# system: Serine/threonine-protein kinase BRSK1 (Homo sapiens)
# condition: at 10 µM
Give your result in % as a bare value.

May I ask what residual activity has been recorded for "O=c1[nH]c2ccccc2n1C1CCN(Cc2ccc(-c3nc4cc5[nH]cnc5cc4nc3-c3ccccc3)cc2)CC1" ?
60

May I ask what residual activity has been recorded for "O=C1NC(=O)c2c1c1c3ccccc3n3c1c1c2c2ccccc2n1C1CCC3O1" ?
95

May I ask what residual activity has been recorded for "COC(=O)[C@@]1(O)C[C@H]2O[C@]1(C)n1c3ccccc3c3c4c(c5c6ccccc6n2c5c31)C(=O)NC4" ?
0

====

# system: Cyclin-dependent kinase 5/CDK5 activator 1 (Homo sapiens) (UniProt Q00535+Q15078)
# Sequence (Q00535 whole entry): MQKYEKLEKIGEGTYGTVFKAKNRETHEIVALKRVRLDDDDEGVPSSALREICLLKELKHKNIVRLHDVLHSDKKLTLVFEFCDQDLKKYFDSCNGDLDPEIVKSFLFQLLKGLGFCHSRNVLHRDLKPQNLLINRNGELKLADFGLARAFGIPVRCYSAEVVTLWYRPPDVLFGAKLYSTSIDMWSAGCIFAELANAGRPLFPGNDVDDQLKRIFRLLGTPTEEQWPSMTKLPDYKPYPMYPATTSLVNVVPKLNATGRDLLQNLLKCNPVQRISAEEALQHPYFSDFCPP
# Sequence (Q15078 99-307 partner limits assumed): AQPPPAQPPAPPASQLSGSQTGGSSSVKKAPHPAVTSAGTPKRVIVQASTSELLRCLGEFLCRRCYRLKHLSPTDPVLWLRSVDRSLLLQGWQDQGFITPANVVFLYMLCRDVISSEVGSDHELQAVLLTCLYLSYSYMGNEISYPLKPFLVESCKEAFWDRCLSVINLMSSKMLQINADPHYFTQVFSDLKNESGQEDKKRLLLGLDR
# condition: at 1 µM
quantity.measured: residual activity (%)
Give your result in % as a bare value.

# annotated cases, reported residual activity shown
COc1cc2ncnc(Nc3ccc(OCc4ccccc4)cc3)c2cc1OC 111
COc1ccc2c(c[n+](C)c3c4cc5c(cc4ccc23)OCO5)c1OC 89
CCc1nc(-c2ccc(OC)cc2)[nH]c1-c1ccncc1 109
COc1ccc2c(c1)/C(=C/c1cnc[nH]1)C(=O)N2 0
COc1cc(OC)c(/C=C2\C(=O)Nc3ccccc32)c(OC)c1 99
CC(C)(C)c1cc(C=C(C#N)C#N)cc(Br)c1O 96
COC(=O)[C@@]1(O)C[C@H]2O[C@]1(C)n1c3ccccc3c3c4c(c5c6ccccc6n2c5c31)C(=O)NC4 3

May I ask what residual activity has been recorded for "O=C1Nc2ccc3ncsc3c2/C1=C/c1c[nH]cn1" ?
1
